- Test system: NCI-H358 (K-Ras G12C)
- protocol-summary: CellTiter-Glo cell viability assay, 5-day treatment
- Assay type: cell-based
- measurement-context: Homo sapiens, NCI-H358, 120 h, 5-day treatment; read-out: H358 Cell Viability assay data (K-Ras G12C, IC50)
Each entry below carries its recorded IC50.

Field: example entries. Status: answers known.
compound	IC50
CCn1c(-c2cccnc2[C@H](C)OC)c2c3cc(ccc31)-c1cc(O)cc(c1)C[C@H](NC(=O)[C@H](C(C)C)N(C)C(=O)C1(N)CC1)C(=O)N1CCC[C@H](N1)C(=O)OCC(C)(C)C2	0.1 to 1 µM
CCn1c(-c2cccnc2[C@H](C)OC)c2c3cc(ccc31)-c1csc(n1)C[C@H](NC(=O)[C@H](C(C)C)N(C)C(=O)N1CC[C@@]3(CCN(C)C3=O)C1)C(=O)N1CCC[C@H](N1)C(=O)OCC(C)(C)C2 (single isomer, unassigned)	0.01 to 0.1 µM
CCn1c(-c2cccnc2[C@H](C)OC)c2c3cc(ccc31)-c1cc(O)cc(c1)C[C@H](NC(=O)[C@H](C(C)C)N(C)C(=O)C1CC13CCNC3)C(=O)N1CCC[C@H](N1)C(=O)OCC(C)(C)C2 (stereo partly shown)	1 to 10 µM

Attention now shifts to the item below.
Enquiry: What does the record list as IC50 for CCn1c(-c2cccnc2[C@H](C)OC)c2c3cc(ccc31)-c1csc(n1)C[C@H](NC(=O)N1CCC[C@@H]1COC)C(=O)N1CCC[C@H](N1)C(=O)OCC(C)(C)C2 (atropisomer, axis not shown) ?
Return: 0.1 to 1 µM

====

- target: KRAS Q61H (Homo sapiens, UniProt P01116+P62937, Q61H)
- Sequence (P01116 1-169 isoform P01116-2 Q61H limits assumed): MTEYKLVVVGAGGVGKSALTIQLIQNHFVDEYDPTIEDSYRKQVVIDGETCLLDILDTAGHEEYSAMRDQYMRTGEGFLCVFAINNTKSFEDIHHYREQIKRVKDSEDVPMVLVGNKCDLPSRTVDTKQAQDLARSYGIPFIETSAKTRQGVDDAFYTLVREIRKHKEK
- Sequence (P62937 whole entry): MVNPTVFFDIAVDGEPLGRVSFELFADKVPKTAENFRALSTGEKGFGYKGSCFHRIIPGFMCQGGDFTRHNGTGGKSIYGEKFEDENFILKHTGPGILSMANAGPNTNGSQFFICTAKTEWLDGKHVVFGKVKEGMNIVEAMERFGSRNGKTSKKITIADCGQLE
- protocol-summary: Disruption of BRAF RBD interaction with Ras (FRET / MOA assay, with Cyclophilin A)
- Assay type: biochemical
- measurement-context: KRAS Q61H; read-out: KRAS Q61H FRET data IC50
- Source text: Disruption of B-Raf Ras-Binding Domain (BRAF^RBD) Interaction with K-Ras by Compounds of the Invention (Also Called a FRET Assay or an MOA Assay) Note—The following protocol describes a procedure for monitoring disruption of K-Ras G12C (GMP-PNP) binding to BRAF^RBD by a compound of the invention. This protocol may also be executed substituting other Ras proteins or nucleotides. […]
pIC50: −log10 of the molar value.
recorded-endpoint: pIC50

molecule	pIC50
CCn1c(-c2cccnc2[C@H](C)OC)c2c3cc(ccc31)-c1csc(n1)C[C@H](NC(=O)[C@H](C(C)C)N(C)C(=O)N1CCCC[C@@H](N(C)C)C1)C(=O)N1CCC[C@H](N1)C(=O)OCC(C)(C)C2	7.00 to 8.00
C=CC(=O)N1CC[C@H](C(=O)N(C)[C@H](C(=O)N[C@H]2Cc3cc(O)cc(c3)-c3ccc4c(c3)c(c(-c3cc(C)cnc3[C@H](C)OC)n4CC)CC(C)(C)COC(=O)[C@@H]3CCCN(N3)C2=O)C(C)C)C1	7.00 to 8.00
C=CC(=O)N1CC[C@@]2(CCN2C(=O)N(C)[C@H](C(=O)N[C@H]2Cc3nc(cs3)-c3ccc4c(c3)c(c(-c3cccnc3[C@H](C)OC)n4CC)CC(C)(C)COC(=O)C3CCCN(N3)C2=O)N(C)C)C1 (single isomer, unassigned)	7.00 to 8.00
CCn1c(-c2cccnc2[C@H](C)OC)c2c3cc(ccc31)-c1cc(O)cc(c1)C[C@H](NC(=O)[C@H](C(C)C)N(C)C(=O)C1CN(C)C1)C(=O)N1CCC[C@H](N1)C(=O)OCC(C)(C)C2 (atropisomer, axis not shown)	7.00 to 8.00
CCn1c(-c2cccnc2[C@H](C)OC)c2c3cc(ccc31)-c1csc(n1)C[C@H](NC(=O)[C@H](C(C)C)N(C)C(=O)N1CC[C@@]3(CCN(C)C3=O)C1)C(=O)N1CCC[C@H](N1)C(=O)OCC(C)(C)C2 (single isomer, unassigned)	6.00 to 7.00

Enquiry: What does the record list as pIC50 for C=CC(=O)N1CCO[C@H]2CN(C(=O)N(C)[C@H](C(=O)N[C@H]3Cc4cccc(c4)-c4ccc5c(c4)c(c(-c4cccnc4[C@H](C)OC)n5CC)CC(C)(C)COC(=O)C4CCCN(N4)C3=O)C(C)C)C[C@H]21 (some centres unmarked) ?
Return: 6.00 to 7.00

Enquiry: What does the record list as pIC50 for CCn1c(-c2cccnc2[C@H](C)OC)c2c3cc(ccc31)-c1csc(n1)C[C@H](NC(=O)[C@H](C(C)C)N(C)C(=O)N1CC(S(=O)(=O)NC)C1)C(=O)N1CCC[C@H](N1)C(=O)OCC(C)(C)C2 (atropisomer, axis not shown) ?
Return: 7.00 to 8.00

Enquiry: What does the record list as pIC50 for "C=CC(=O)N1CCO[C@H]2CN(C(=O)N(C)[C@H](C(=O)N[C@H]3CN4CCC=C(C4)c4ccc5c(c4)c(c(-c4cccnc4[C@H](C)OC)n5CC)CC(C)(C)COC(=O)[C@@H]4CCCN(N4)C3=O)C(C)C)C[C@H]21" ?
Return: 6.00 to 7.00

====

- target: NRAS Q61K (Homo sapiens, UniProt P01111+P62937, Q61K)
- Sequence (P01111 whole entry Q61K): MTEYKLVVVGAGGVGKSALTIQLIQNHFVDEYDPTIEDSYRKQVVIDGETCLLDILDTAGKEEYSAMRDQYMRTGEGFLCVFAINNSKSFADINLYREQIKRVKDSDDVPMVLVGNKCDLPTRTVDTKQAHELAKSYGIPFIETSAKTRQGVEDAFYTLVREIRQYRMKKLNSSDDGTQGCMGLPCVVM
- Sequence (P62937 whole entry): as the sequence (P62937 whole entry) above
- protocol-summary: Disruption of BRAF RBD interaction with Ras (FRET / MOA assay, with Cyclophilin A)
- Format: biochemical
- measurement-context: NRAS Q61K; read-out: NRAS Q61K FRET data IC50
recorded-endpoint: IC50

Field: example entries. Status: answers known.
molecule	value-measured
CCn1c(-c2cccnc2[C@H](C)OC)c2c3cc(ccc31)-c1csc(n1)C[C@H](NC(=O)[C@H](C(C)C)N(C)C(=O)N1CC[C@H]3CN(C)C[C@H]31)C(=O)N1CCC[C@H](N1)C(=O)OCC(C)(C)C2 (atropisomer, axis not shown)	10 to 100 nM
C=CC(=O)N1CC[C@H](C(=O)N(C)[C@H](C(=O)N[C@H]2Cc3cc(O)cc(c3)-c3ccc4c(c3)c(c(-c3ccncc3)n4C(C)(C)C#N)CC(C)(C)COC(=O)[C@@H]3CCCN(N3)C2=O)C(C)C)C1	100 to 1000 nM
CCn1c(-c2cccnc2[C@H](C)OC)c2c3cc(ccc31)-c1cc(O)cc(c1)C[C@H](NC(=O)[C@H](C(C)C)N(C)C(=O)C1CCC(C3CCCO3)O1)C(=O)N1CCC[C@H](N1)C(=O)OCC(C)(C)C2 (stereo partly shown)	10 to 100 nM
C=CC(=O)N1CC[C@@H](N(C)C(=O)N(C)[C@H](C(=O)N[C@H]2Cc3nc(cs3)-c3ccc4c(c3)c(c(-c3cccnc3[C@H](C)OC)n4CC(F)(F)F)CC(C)(C)COC(=O)[C@@H]3CCCN(N3)C2=O)C(C)C)C1 (atropisomer, axis not shown)	100 to 1000 nM
CCn1c(-c2cccnc2[C@H](C)OC)c2c3cc(ccc31)-c1cc(O)cc(c1)C[C@H](NC(=O)[C@H](C(C)C)N(C)C(=O)C1Cc3cccnc3C1)C(=O)N1CCC[C@H](N1)C(=O)OCC(C)(C)C2 (stereo partly shown)	100 to 1000 nM

Attention now shifts to the item below.
Enquiry: What does the record list as IC50 for "CCn1c(-c2cccnc2[C@H](C)OC)c2c3cc(ccc31)-c1csc(n1)C[C@H](NC(=O)[C@H](C(C)C)N(C)C(=O)N(C)[C@@H]1CCCN(C)C1)C(=O)N1CCC[C@H](N1)C(=O)OCC(C)(C)C2" ?
Return: 100 to 1000 nM

====

Each entry below carries its recorded IC50.
- target: KRAS G12S (Homo sapiens, UniProt P01116+P62937, G12S)
- Sequence (P01116 1-169 isoform P01116-2 G12S limits assumed): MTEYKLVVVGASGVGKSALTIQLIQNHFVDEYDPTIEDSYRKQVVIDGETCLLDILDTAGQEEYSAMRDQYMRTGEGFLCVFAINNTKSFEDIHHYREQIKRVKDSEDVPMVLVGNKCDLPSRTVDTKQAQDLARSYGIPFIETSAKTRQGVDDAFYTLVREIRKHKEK
- Sequence (P62937 whole entry): as the sequence (P62937 whole entry) above
- protocol-summary: Ras-Raf disruption / FRET / MOA assay (BRAF RBD)
- Type: biochemical
- measurement-context: Ras-Raf disruption, with Cyclophilin A; read-out: KRAS G12S FRET data IC50

compound	value-measured
CCn1c(-c2cccnc2[C@H](C)OC)c2c3cc(ccc31)-c1cc(O)cc(c1)C[C@H](NC(=O)[C@H](C1CCCC1)N1CC[C@@]3(CCN(C(=O)[C@H]4CN4)C3)C1=O)C(=O)N1CCC[C@H](N1)C(=O)OCC(C)(C)C2 [Example 174]	10 to 100 nM
CCn1c(-c2cccnc2[C@H](C)OC)c2c3cc(ccc31)-c1cc(O)cc(c1)C[C@H](NC(=O)[C@H](C(C)C)N(C)C(=O)c1ncc(NC(=O)[C@H]3CN3)n1C)C(=O)N1CCC[C@H](N1)C(=O)OCC(C)(C)C2 [Example 84]	100 to 1000 nM

Enquiry: # returns recorded IC50 (system: KRAS G12S (Homo sapiens, UniProt P01116+P62937, G12S)) for CCn1c(-c2cccnc2[C@H](C)OC)c2c3cc(ccc31)-c1csc(n1)C[C@H](NC(=O)[C@H](C(C)C)N(C)C(=O)N1CC(N(C)C(=O)[C@H]3CN3)C1)C(=O)N1CCC[C@H](N1)C(=O)OCC(C)(C)C2 [Example 218]
Return: 100 to 1000 nM

Enquiry: # returns recorded IC50 (system: KRAS G12S (Homo sapiens, UniProt P01116+P62937, G12S)) for CCn1c(-c2cnccc2COC)c2c3cc(ccc31)-c1cc(O)cc(c1)C[C@H](NC(=O)[C@H](C(C)C)N(C)C(=O)CN(C)C(=O)[C@H]1[C@@H](C(=O)OC)N1[S@+]([O-])C(C)(C)C)C(=O)N1CCC[C@H](N1)C(=O)OCC(C)(C)C2 (stereo partly shown) [Example 48]
Return: 10 to 100 nM

Values compiled from patent US20230233569A1.
